- system_under_test: T1, Anti-CD28 scFv (VH-linker 1-VL) (biotinylated (site not stated))
- T1 construct: biotinylated and captured on neutravidin coated plates in the phage ELISA
- test_description: phage ELISA, scFv wells pre-incubated with soluble CD28 (competitor); background signal 0.073
recorded_metric: Phage binding ELISA CD28 scFv signal in presence of CD28
Reply with the value as a number alone.

Q: Hello, please tell me recorded Phage binding ELISA CD28 scFv signal in presence of CD28 for this one: MNWCPKDIWYLCFN [Phage-22]
A: 0.168

Q: For the binder MDWCPMHLWHQCFN [Phage-39] , give its reported Phage binding ELISA CD28 scFv signal in presence of CD28.
A: 0.299

Q: For the binder MDWCPRHRWVDCFY [Phage-57] , report Phage binding ELISA CD28 scFv signal in presence of CD28.
A: 0.11

Q: Given the binder MDWCPRDSWHLCFA [Phage-59] , write its reported Phage binding ELISA CD28 scFv signal in presence of CD28.
A: 0.147
